Assign inhibition at 0.1 µM to each entry below.
Target: human NaV1.8 ion channel (Homo sapiens (Human), UniProt Q9Y5Y9)
Sequence (Q9Y5Y9 whole entry): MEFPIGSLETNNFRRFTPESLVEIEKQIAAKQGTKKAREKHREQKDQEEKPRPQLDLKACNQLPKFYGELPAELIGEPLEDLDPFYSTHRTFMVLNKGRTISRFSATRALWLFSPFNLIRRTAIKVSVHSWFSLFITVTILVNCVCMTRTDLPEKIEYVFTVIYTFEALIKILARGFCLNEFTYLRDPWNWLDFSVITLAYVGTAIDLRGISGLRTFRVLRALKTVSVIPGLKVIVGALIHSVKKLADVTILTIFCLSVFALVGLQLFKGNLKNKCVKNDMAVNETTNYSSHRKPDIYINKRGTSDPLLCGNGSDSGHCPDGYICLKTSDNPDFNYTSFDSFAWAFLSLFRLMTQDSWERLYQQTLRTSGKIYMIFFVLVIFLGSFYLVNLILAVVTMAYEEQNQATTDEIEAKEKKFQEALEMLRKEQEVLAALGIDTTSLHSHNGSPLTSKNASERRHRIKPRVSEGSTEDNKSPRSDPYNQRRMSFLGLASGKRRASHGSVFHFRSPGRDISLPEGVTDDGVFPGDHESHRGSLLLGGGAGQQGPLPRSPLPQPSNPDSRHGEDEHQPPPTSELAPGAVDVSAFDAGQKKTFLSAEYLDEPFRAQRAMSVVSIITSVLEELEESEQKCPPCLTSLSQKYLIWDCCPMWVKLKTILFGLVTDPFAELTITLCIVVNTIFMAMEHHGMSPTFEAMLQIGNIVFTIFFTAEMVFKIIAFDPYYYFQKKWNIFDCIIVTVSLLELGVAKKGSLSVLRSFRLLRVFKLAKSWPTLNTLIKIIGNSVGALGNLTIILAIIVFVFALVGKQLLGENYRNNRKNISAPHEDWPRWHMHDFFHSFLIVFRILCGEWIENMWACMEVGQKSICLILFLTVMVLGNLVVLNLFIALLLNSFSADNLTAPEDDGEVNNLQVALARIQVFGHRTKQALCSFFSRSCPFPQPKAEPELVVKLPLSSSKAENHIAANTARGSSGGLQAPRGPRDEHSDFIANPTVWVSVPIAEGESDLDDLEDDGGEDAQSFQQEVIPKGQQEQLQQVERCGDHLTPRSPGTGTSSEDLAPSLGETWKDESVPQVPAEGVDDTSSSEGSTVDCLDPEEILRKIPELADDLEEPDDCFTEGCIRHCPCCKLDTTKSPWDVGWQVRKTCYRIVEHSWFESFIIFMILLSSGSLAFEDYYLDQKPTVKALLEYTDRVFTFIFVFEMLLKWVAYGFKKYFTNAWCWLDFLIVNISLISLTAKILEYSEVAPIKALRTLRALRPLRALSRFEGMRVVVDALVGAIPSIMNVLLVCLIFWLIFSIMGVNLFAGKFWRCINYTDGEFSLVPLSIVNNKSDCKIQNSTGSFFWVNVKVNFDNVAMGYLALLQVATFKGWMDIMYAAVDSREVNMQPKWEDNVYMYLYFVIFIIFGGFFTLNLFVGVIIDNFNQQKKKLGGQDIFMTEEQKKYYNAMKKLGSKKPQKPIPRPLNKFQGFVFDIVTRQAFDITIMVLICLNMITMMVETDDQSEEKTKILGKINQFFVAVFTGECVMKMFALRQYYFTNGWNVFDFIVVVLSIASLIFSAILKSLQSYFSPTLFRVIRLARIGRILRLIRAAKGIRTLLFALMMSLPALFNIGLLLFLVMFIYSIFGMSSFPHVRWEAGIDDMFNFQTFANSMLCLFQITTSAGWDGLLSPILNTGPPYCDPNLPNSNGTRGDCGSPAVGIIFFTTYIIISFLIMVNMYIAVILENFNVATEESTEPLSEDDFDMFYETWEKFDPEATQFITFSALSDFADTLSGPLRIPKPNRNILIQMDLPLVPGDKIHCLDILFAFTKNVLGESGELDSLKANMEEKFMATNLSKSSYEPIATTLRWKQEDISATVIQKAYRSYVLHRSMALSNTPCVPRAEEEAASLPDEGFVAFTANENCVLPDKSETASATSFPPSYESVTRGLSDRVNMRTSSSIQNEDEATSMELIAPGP
Experiment: Compound inhibition activity on human NaV1.8 ion channel in HEK293 cells (whole-cell patch clamp)
Assay type: cell-based
Settings: 100 nm concentration; HEK293 cells, resting protocol; read-out: Inhibition ratio of compounds against Nav1.8 (Activity of inhibition)

Which inhibition at 0.1 µM is reported with human NaV1.8 ion channel (Homo sapiens (Human), UniProt Q9Y5Y9) for this entry: Cc1cc(F)ccc1Oc1cc(C2CC2)c(C(F)(F)F)cc1C(=O)Nc1ccc(F)c(OC[C@H](O)CNC(=O)CO)c1 ?
> 80%

What inhibition at 0.1 µM appears in the records for this molecule with human NaV1.8 ion channel (Homo sapiens (Human), UniProt Q9Y5Y9)? Cc1cc(F)ccc1Oc1cc(C2CC2)c(C(F)(F)F)cc1C(=O)Nc1ccc(F)c(C2CCNC(=O)N2)c1 (stereo not shown)
> 80%

What is its inhibition at 0.1 µM for human NaV1.8 ion channel (Homo sapiens (Human), UniProt Q9Y5Y9)? Entry: Cc1cc(F)ccc1Oc1cc(C2CC2)c(C(F)(F)F)cc1C(=O)Nc1ccc(F)c(OCC(O)CN)c1 (stereo not shown)
> 80%

Test system human NaV1.8 ion channel (Homo sapiens (Human), UniProt Q9Y5Y9); read-out inhibition at 0.1 µM; what value for Cc1cc(F)ccc1Oc1cc(C2CC2)c(C(F)(F)F)cc1C(=O)Nc1ccc(F)c(OCC(O)CNc2cnn(C)c2)c1 (stereo not shown) ?
50 to 80%

Tell me reported inhibition at 0.1 µM for Cc1cc(F)ccc1Oc1cc(C2CC2)c(C(F)(F)F)cc1C(=O)Nc1ccc(F)c(OCC(O)CNc2ccccc2)c1 (stereo not shown) , tested with human NaV1.8 ion channel (Homo sapiens (Human), UniProt Q9Y5Y9).
20 to 50%

// lookup inhibition at 0.1 µM | system=human NaV1.8 ion channel (Homo sapiens (Human), UniProt Q9Y5Y9) | key= Cc1cc(F)ccc1Oc1cc(C2CC2)c(C(F)(F)F)cc1C(=O)Nc1ccc(F)c(C(CCO)N2CCCC2)c1 (stereo not shown)
50 to 80%

What measured inhibition at 0.1 µM is associated with Cc1cc(F)ccc1Oc1cc(C2CC2)c(C(F)(F)F)cc1C(=O)Nc1ccc(F)c(C(CCO)n2ccnc2)c1 (stereo not shown) on human NaV1.8 ion channel (Homo sapiens (Human), UniProt Q9Y5Y9)?
50 to 80%

// fetch human NaV1.8 ion channel (Homo sapiens (Human), UniProt Q9Y5Y9) inhibition at 0.1 µM for Cc1cc(F)ccc1Oc1cc(C2CC2)c(C(F)(F)F)cc1C(=O)Nc1ccc(F)c(OC2CCC(CO)OC2)c1 (stereo not shown)
20 to 50%

Can you look up inhibition at 0.1 µM on human NaV1.8 ion channel (Homo sapiens (Human), UniProt Q9Y5Y9) for Cc1cc(F)ccc1Oc1cc(C(F)(F)F)c(Cl)cc1C(=O)Nc1ccc(F)c(OC[C@@H](O)CNC(=O)CO)c1 ?
50 to 80%

Form field - read-out: inhibition at 0.1 µM; system: human NaV1.8 ion channel (Homo sapiens (Human), UniProt Q9Y5Y9); submitted item: Cc1cc(F)ccc1Oc1cc(C2CC2)c(C(F)(F)F)cc1C(=O)Nc1ccc(F)c(C(C)CC(N)=O)c1 (stereo not shown)
> 80%

Which inhibition at 0.1 µM is reported with human NaV1.8 ion channel (Homo sapiens (Human), UniProt Q9Y5Y9) for this entry: Cc1cc(F)ccc1Oc1cc(C2CC2)c(C(F)(F)F)cc1C(=O)Nc1ccc(F)c(OCC2CNCCO2)c1 (stereo not shown) ?
50 to 80%

Value wanted: inhibition at 0.1 µM (human NaV1.8 ion channel (Homo sapiens (Human), UniProt Q9Y5Y9)) of entry CC(=O)NCC(O)COc1cc(NC(=O)c2cc(C(F)(F)F)c(C3CC3)cc2Oc2ccc(F)cc2C)ccc1F (stereo not shown)
50 to 80%

Given the entry Cc1cc(F)ccc1Oc1cc(C(F)(F)F)ccc1C(=O)Nc1ccc(F)c(OCC(O)CN)c1 (stereo not shown) , what inhibition at 0.1 µM was observed with human NaV1.8 ion channel (Homo sapiens (Human), UniProt Q9Y5Y9)?
50 to 80%

For human NaV1.8 ion channel (Homo sapiens (Human), UniProt Q9Y5Y9), provide inhibition at 0.1 µM of Cc1cc(F)ccc1Oc1cc(C2CC2)c(C(F)(F)F)cc1C(=O)Nc1ccc(F)c(OCC(O)CNC2CC2)c1 (stereo not shown) please.
> 80%

Lab note: need inhibition at 0.1 µM with human NaV1.8 ion channel (Homo sapiens (Human), UniProt Q9Y5Y9) for entry COc1ccc(NCC(O)COc2cc(NC(=O)c3cc(C(F)(F)F)c(C4CC4)cc3Oc3ccc(F)cc3C)ccc2F)cc1 (stereo not shown) , please look it up.
20 to 50%

Return inhibition at 0.1 µM measured with human NaV1.8 ion channel (Homo sapiens (Human), UniProt Q9Y5Y9) given this molecule: Cc1cc(F)ccc1Oc1cc(C(F)(F)F)c(Cl)cc1C(=O)Nc1cnnc(OC[C@@H](O)CO)c1
50 to 80%

Please tell me: inhibition at 0.1 µM of Cc1cc(F)ccc1Oc1cc(C(F)(F)F)c(Cl)cc1C(=O)Nc1ccnc(OC[C@H](O)CO)c1 , system human NaV1.8 ion channel (Homo sapiens (Human), UniProt Q9Y5Y9)?
> 80%

Please tell me: inhibition at 0.1 µM of Cc1cc(F)ccc1Oc1cc(C2CC2)c(C(F)(F)F)cc1C(=O)Nc1ccc(F)c(C2CCNC(=O)CN2)c1 (stereo not shown) , system human NaV1.8 ion channel (Homo sapiens (Human), UniProt Q9Y5Y9)?
20 to 50%

For human NaV1.8 ion channel (Homo sapiens (Human), UniProt Q9Y5Y9), provide inhibition at 0.1 µM of Cc1cc(F)ccc1Oc1cc(C2CC2)c(C(F)(F)F)cc1C(=O)Nc1ccc(F)c(C(N)CC(C)N)c1 (stereo not shown) please.
> 80%

What measured inhibition at 0.1 µM is associated with Cc1cc(F)ccc1Oc1cc(C2CC2)c(C(F)(F)F)cc1C(=O)Nc1ccc(F)c(OCC(O)CNC23CC4CC(CC(C4)C2)C3)c1 (stereo not shown) on human NaV1.8 ion channel (Homo sapiens (Human), UniProt Q9Y5Y9)?
50 to 80%

Request: inhibition at 0.1 µM, test system human NaV1.8 ion channel (Homo sapiens (Human), UniProt Q9Y5Y9), entry Cc1cc(F)ccc1Oc1cc(C2CC2)c(C(F)(F)F)cc1C(=O)Nc1ccnc(C(C)(C)O)c1
20 to 50%

Any idea what inhibition at 0.1 µM came out for Cc1cc(F)ccc1Oc1cc(C2CC2)c(C(F)(F)F)cc1C(=O)Nc1ccc(F)c(OCC(=O)NCC(F)(F)F)c1 on human NaV1.8 ion channel (Homo sapiens (Human), UniProt Q9Y5Y9)?
20 to 50%

Could you share what inhibition at 0.1 µM was measured for Cc1cc(F)ccc1Oc1cc(C2CC2)c(C(F)(F)F)cc1C(=O)Nc1ccc(F)c(OC2CC(O)C2)c1 (stereo not shown) , tested on human NaV1.8 ion channel (Homo sapiens (Human), UniProt Q9Y5Y9)?
50 to 80%

Quick check: inhibition at 0.1 µM on human NaV1.8 ion channel (Homo sapiens (Human), UniProt Q9Y5Y9), item Cc1cc(F)ccc1Oc1cc(C2CC2)c(C(F)(F)F)cc1C(=O)Nc1ccc(F)c(C(C)CC(N)C(F)(F)F)c1 (stereo not shown) ?
< 20%

State its inhibition at 0.1 µM on human NaV1.8 ion channel (Homo sapiens (Human), UniProt Q9Y5Y9): Cc1cc(F)ccc1Oc1cc(C2CC2)c(C(F)(F)F)cc1C(=O)Nc1ccc(F)c(C(C)C(O)CNC(C)(C)C)c1 (stereo not shown)
> 80%

Report inhibition at 0.1 µM for Cc1cc(F)ccc1Oc1cc(C2CC2)c(C(F)(F)F)cc1C(=O)Nc1ccc(F)c(OCC(N)=O)c1 tested on human NaV1.8 ion channel (Homo sapiens (Human), UniProt Q9Y5Y9).
> 80%

Provide the documented inhibition at 0.1 µM with human NaV1.8 ion channel (Homo sapiens (Human), UniProt Q9Y5Y9) as the system for Cc1cc(F)ccc1Oc1cc(C2CC2)c(C(F)(F)F)cc1C(=O)Nc1cccc(OCC(O)CNC(C)C)c1 (stereo not shown)
> 80%

Checklist item: inhibition at 0.1 µM tested on human NaV1.8 ion channel (Homo sapiens (Human), UniProt Q9Y5Y9), entry Cc1cc(F)ccc1Oc1cc(C2CC2)c(C(F)(F)F)cc1C(=O)Nc1ccc(F)c(C(CCO)NS(C)(=O)=O)c1 (stereo not shown) , value?
20 to 50%

Numbers sourced from patent US20230303497A1.
